- MEASURED ON: UniProt Q12809
- Sequence (Q12809 whole entry): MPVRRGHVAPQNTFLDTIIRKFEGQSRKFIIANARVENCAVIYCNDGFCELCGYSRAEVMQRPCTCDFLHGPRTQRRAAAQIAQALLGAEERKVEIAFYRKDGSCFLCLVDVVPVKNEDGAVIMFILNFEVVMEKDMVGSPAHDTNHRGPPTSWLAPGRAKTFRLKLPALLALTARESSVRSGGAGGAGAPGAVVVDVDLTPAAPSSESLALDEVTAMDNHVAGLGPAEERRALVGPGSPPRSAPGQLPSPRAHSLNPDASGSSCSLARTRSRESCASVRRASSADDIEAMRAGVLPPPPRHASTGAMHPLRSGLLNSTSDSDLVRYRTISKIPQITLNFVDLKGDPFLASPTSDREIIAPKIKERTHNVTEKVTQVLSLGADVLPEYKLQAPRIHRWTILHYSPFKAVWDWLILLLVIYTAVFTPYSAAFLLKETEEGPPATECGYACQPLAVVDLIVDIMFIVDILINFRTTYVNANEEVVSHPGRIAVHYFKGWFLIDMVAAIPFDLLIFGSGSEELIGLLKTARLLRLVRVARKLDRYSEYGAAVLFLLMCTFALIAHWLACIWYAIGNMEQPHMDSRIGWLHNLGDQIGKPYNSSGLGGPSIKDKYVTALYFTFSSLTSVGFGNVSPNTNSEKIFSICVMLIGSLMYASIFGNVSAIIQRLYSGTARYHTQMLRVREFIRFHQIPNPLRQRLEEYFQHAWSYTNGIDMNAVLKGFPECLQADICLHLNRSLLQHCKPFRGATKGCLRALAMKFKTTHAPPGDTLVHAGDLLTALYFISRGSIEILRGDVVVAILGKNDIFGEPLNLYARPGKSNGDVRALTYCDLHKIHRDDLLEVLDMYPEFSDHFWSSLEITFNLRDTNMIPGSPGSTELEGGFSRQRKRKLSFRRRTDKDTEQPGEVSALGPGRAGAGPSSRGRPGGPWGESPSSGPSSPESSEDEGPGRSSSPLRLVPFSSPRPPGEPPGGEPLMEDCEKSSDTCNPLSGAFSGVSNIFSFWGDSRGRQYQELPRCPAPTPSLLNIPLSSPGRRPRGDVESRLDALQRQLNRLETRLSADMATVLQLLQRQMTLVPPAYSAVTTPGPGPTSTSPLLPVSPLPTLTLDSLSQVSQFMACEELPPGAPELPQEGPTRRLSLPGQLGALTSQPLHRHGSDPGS
- MEASUREMENT PROTOCOL: hERG assay (QPatch automated patch clamp, CHO cells)
- Type: cell-based
- PROTOCOL CONDITIONS: CHO cells stably expressing hERG; 1, 3, 10 and 30 μM; tail current; room temperature; read-out: hERG pIC50 (converted)
IC50 by entry:

Worked cases, IC50 given:
CNC1CN(c2cc(-c3nn(C)cc3C)nc(N)n2)C1 | 23.4 µM
CNC1CN(c2cc(-c3cnn(C)c3Cl)nc(N)n2)C1 | > 100 µM
CNC1CN(c2cc(-c3cnn(CC(F)F)c3)nc(N)n2)C1 | > 100 µM
CCc1cc(-c2cc(N3CC(NC)C3)nc(N)n2)n[nH]1 | > 31.6 µM

Next item in the queue.
Prompt: Give reported IC50 value for CNC1CN(c2cc(-c3cc(Cl)nn3C)nc(N)n2)C1
Response: > 100 µM
